- Measured on: T1, MICB*005 on HCC1534 cells (human, UniProt Q29980 23-383)
- T1 sequence (looked up): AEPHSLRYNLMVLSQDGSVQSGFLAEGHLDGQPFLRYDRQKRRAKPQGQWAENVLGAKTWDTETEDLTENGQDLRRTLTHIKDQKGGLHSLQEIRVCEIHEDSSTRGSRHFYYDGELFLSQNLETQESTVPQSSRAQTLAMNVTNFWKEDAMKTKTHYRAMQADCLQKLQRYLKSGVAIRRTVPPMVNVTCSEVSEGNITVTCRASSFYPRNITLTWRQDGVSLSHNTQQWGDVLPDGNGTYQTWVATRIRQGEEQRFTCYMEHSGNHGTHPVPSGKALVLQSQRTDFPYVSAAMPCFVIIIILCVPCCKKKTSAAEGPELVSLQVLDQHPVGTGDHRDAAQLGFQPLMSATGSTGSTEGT
- Test summary: cell-based or functional assay
Could you please report measured Max % Inhibition of shedding for the items listed next?
Give bare numbers, in %.

13A9 (antibody, V domains shown, Mouse variable domains; constant regions differ by assay) VH: QVQLQQSGAELVRPGTSVKVSCKASGYAFTNYLIEWVKQRPGQGLEWIGAINPGSGATNYNEKFKDKARLTADKSSNTAYLQFSSLTSDDSAVYFCARFLGNYFDNWGQGATLTVSS VL: DIQMTQSPASLSASVGETVTITCRASGNIHSYLAWYQQKQGKSPQLLVYYAETLADGVPSRFSGRGSGTQYSLKINSLQPEDFGSYFCQQFWTTPYTFGGGTKVEIK; 76
6E1.1.12 (antibody, V domains shown, Mouse hybridoma antibody; constant regions differ by assay) VH: QGQMQQSGAELVKPGASVKLSCKTSGFTFSDNYISWLKQKPGQSLEWIAWIYAGTGGSSYNQKFRDKAQLTVDTSSRTAYMQLSSLTTEDSAIYYCARHDYYGTSGAWFAYWGRGTLVTVSA VL: DVLMTQTPLSLPVSLGDQASISCRSSQHIVHSNENTYLEWYLQKPGQSPKLLIYKVSNRFSGVPDRFSGSGSGTDFTLKISRVEAEDLGVYYCFQGSHVPWTFGGGTKVEIK; 58
1D5 (antibody, V domains shown, Mouse variable domains; constant regions differ by assay (human IgG1 or mouse IgG2a); also called anti-MIC 1D5) VH: EIQLQQSGPELVKPGASVKVSCKASGYAFTSQNIYWVKQSHGKSLEWIGYIEPYNVVPMYNPKFKGKATLTVDKSSSSAYIHLNSLTSEDSAIYYCARSGSSNFDYWGQGTTLTVSS VL: EIILTQSPTTMAASPGEKITITCSASSSISSHYLHWYQQKSGFSPKLLIYRTSNLASGVPARFSGSGSGTSYSLTIGTMEAEDVATYYCQQGSSLPLTFGAGTKVEIK; 59

For the next question, use this binder.
According to the records, this binder 15F11 (antibody, V domains shown, Mouse variable domains; constant regions differ by assay) VH: EIQLQQSGPELVKPGASVRVSCKPSGYAFTSNNIYWVKQSRRKSLEWIGYIDPYIGRIIYNQQFKDKATLTVDKSSSTAYMHLNSLTSEDSAVYYCSRSGERSNFDYWGQGTTLTVSS VL: EIVLTQSPTAMAASPGEKITITCSASSSISSNYLHWYQQKPGFSPKLLIYRTSNLASGVPARFSGSGSGTSYSLTIGPMEAEDVATYYCQQGGSLPLTFGAGTKVEIK displays Max % Inhibition of shedding of 60
